Reference for the values: patent US20150329642A1

Target: T1, cMetECDHis (human, UniProt P08581 25-932, limits assumed, biotinylated in the cross-block ELISA of Example 17)
T1 construct: Expressed in HEK-293F cells; also called soluble cMetECDHis; biotinylated cMetECDHis
Experiment: cross-block ELISA; competitor 058
residual binding, % of no competitor less than 20% is satisfied; residual binding, % of no competitor greater than or equal to 20% is not satisfied.

Request: Find out if reported residual binding, % of no competitor for anti-c-Met HuMab 098 (IgG1) (antibody, V domains shown, also called TH1016-098; PC1016-098) VH: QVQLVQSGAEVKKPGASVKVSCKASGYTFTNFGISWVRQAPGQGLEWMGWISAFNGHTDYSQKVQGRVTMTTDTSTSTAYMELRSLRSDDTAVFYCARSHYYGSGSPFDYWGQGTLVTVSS VL: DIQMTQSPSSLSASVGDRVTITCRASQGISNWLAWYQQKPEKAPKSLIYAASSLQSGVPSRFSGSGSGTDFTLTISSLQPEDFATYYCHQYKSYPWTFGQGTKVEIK is less than 20%
Result: not satisfied

Request: Find out if reported residual binding, % of no competitor for anti-c-Met HuMab 005 (IgG1) (antibody, V domains shown, also called TH1016-005; PC1016-005) VH: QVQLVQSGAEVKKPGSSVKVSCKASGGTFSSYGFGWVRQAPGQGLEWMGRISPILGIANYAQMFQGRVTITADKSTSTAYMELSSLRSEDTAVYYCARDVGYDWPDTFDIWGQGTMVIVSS VL: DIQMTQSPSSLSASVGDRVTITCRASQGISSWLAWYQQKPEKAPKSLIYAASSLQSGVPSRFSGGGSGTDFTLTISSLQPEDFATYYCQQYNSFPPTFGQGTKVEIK is less than 20%
Result: satisfied
